STUDY_SYSTEM: HIV-1 Env of isolate MGRM-D-029 (subtype D) (HIV-1)
METHOD: cell-based or functional assay
READOUT_LABEL: IC50 (neutralization)

IC50 (neutralization) reported for this binder PGT-136 (antibody, V domains shown) VH: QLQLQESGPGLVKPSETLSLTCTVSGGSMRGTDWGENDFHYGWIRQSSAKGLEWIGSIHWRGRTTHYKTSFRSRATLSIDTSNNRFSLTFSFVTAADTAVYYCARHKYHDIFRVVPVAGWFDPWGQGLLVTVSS VL: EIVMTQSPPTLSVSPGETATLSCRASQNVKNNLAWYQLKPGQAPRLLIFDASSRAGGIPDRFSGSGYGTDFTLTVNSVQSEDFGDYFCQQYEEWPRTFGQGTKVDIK : > 50 µg/mL
